Toxicity Data, Average, Mean (relative to DMSO control) values, listed per item
# Tested on: cells (nuclei count)
# test-conditions: Toxicity Data, Average of Exp 1-3, 25 uM
The response must be a number in % with no trailing unit.

Recorded Toxicity Data, Average, Mean (relative to DMSO control), per entry:
| compound | unit-info | reported-value |
| --- | --- | --- |
| Cc1ccc(CN(CCN(C)C)Cc2ccc(C)s2)o1 [SILCS7] | % | 103.49 |
| CN(C)CCN(Cc1ccccc1)Cc1cc(C#CCO)cs1 [SILCS5] | % | 105.30 |
| CN(C)CCN(Cc1ccsc1)Cc1ccc(CO)o1 [SILCS9] | % | 92.21 |
| CN1CCN(CC(O)COc2cccc(N3CCCCC3)c2CNCCc2ccccc2F)CC1 (stereo not drawn) [SILCS10] | % | 50.46 |
| Cc1ccc(CN(CCN(C)C)Cc2ccccc2)o1 [SILCS11] | % | 105.91 |

Query: Which Toxicity Data, Average, Mean (relative to DMSO control) value belongs to CN1CCN(CC(O)COc2c(CNCCc3ccccc3F)cccc2C2CCCCC2)CC1 (stereo not drawn) [SILCS4] ?
Reply: 3.91
